The values you see were collected from patent US20120083522A1.

Tested on: human Factor XI mRNA
Assay: Dose-dependent inhibition in HepB3 cells, electroporation (Example 7)
Type: cell-based
Details: 123.457 nM, approx. 16 h
Form field: percent inhibition of human Factor XI mRNA (one value per entry).
Use % as the unit, but write only the number.

Please review the following examples before continuing.
416892 (antisense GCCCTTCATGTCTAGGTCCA; 3-14-3 chimeric gapmer, wing sugar chemistry not given here, further chemistry not given here) [compound 416892] | 12
416825 (antisense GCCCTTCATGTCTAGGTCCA; 5-10-5 gapmer, wing sugar chemistry not given here, further chemistry not given here) [compound 416825] | 40

API: the following record is the query input.
## Task So what does the record say about percent inhibition of human Factor XI mRNA for 416838 (antisense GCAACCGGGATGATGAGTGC; 5-10-5 gapmer, wing sugar chemistry not given here, further chemistry not given here) [compound 416838] ?
## Result 9

====

Tested on: human Factor XI mRNA
Test: Dose-dependent inhibition in HepB3 cells, lipofectin (Example 7)
Assay type: cell-based
Details: 75 nM, approx. 16 h
Form field: percent inhibition of human Factor XI mRNA (one value per entry).
Use % as the unit, but write only the number.

## Task So what does the record say about percent inhibition of human Factor XI mRNA for 417002 (antisense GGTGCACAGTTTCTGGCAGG; 2-13-5 gapmer, wing sugar chemistry not given here, further chemistry not given here) [compound 417002] ?
## Result 65

## Task So what does the record say about percent inhibition of human Factor XI mRNA for 416864 (antisense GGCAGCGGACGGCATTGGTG; 5-10-5 gapmer, wing sugar chemistry not given here, further chemistry not given here) [compound 416864] ?
## Result 63

## Task So what does the record say about percent inhibition of human Factor XI mRNA for 416999 (antisense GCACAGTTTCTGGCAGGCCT; 2-13-5 gapmer, wing sugar chemistry not given here, further chemistry not given here) [compound 416999] ?
## Result 59

## Task So what does the record say about percent inhibition of human Factor XI mRNA for 416838 (antisense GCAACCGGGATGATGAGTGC; 5-10-5 gapmer, wing sugar chemistry not given here, further chemistry not given here) [compound 416838] ?
## Result 56

## Task So what does the record say about percent inhibition of human Factor XI mRNA for 417003 (antisense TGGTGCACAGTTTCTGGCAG; 2-13-5 gapmer, wing sugar chemistry not given here, further chemistry not given here) [compound 417003] ?
## Result 58

## Task So what does the record say about percent inhibition of human Factor XI mRNA for 416858 (antisense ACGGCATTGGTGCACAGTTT; 5-10-5 gapmer, wing sugar chemistry not given here, further chemistry not given here) [compound 416858] ?
## Result 62

## Task So what does the record say about percent inhibition of human Factor XI mRNA for 416892 (antisense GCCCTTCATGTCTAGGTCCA; 3-14-3 chimeric gapmer, wing sugar chemistry not given here, further chemistry not given here) [compound 416892] ?
## Result 72

## Task So what does the record say about percent inhibition of human Factor XI mRNA for 416925 (antisense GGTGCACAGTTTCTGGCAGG; 3-14-3 chimeric gapmer, wing sugar chemistry not given here, further chemistry not given here) [compound 416925] ?
## Result 60

====

System: human Factor XI mRNA
Test: Dose-dependent inhibition in HepG2 cells, electroporation (Example 4)
Format: cell-based
Conditions: 6.7 μM, 16 hours
In the oligonucleotide strings, read from the 5' end, every base follows the letter of its sugar. An asterisk marks phosphorothioate; unmarked linkages are phosphodiester. Other units and linkages are bracketed, terminal groups are in braces. A string of capitals states the bases alone. e = 2'-O-(2-methoxyethyl) (MOE); [5mC] = 5-methylcytosine; d = 2'-deoxy (DNA)
Label Yes for high-side percent inhibition of Factor XI mRNA, relative to untreated control cells (at or above 70%) and No for low-side percent inhibition of Factor XI mRNA, relative to untreated control cells (below it).

Study these solved cases before continuing.
416941 (antisense eG*eG*e[5mC]*dA*dG*d[5mC]*dG*dG*dA*d[5mC]*dG*dG*d[5mC]*dA*dT*dT*dG*eG*eT*eG) [compound 416941] | Yes
413467 (antisense eG*eG*eT*e[5mC]*e[5mC]*dA*d[5mC]*dA*dT*dA*dA*dA*dT*dG*dT*e[5mC]*eT*eT*eT*eG) [compound 413467] | No
416856 (antisense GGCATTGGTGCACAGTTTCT; 5-10-5 gapmer, wing sugar chemistry not given here, further chemistry not given here) [compound 416856] | No

## Task Kindly determine if percent inhibition of Factor XI mRNA, relative to untreated control cells recorded for 416923 (antisense eT*eG*e[5mC]*dA*d[5mC]*dA*dG*dT*dT*dT*d[5mC]*dT*dG*dG*d[5mC]*dA*dG*eG*e[5mC]*e[5mC]) [compound 416923] is above or exactly 70%.
## Result No

## Task Kindly determine if percent inhibition of Factor XI mRNA, relative to untreated control cells recorded for 416864 (antisense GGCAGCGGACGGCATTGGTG; 5-10-5 gapmer, wing sugar chemistry not given here, further chemistry not given here) [compound 416864] is above or exactly 70%.
## Result Yes

## Task Kindly determine if percent inhibition of Factor XI mRNA, relative to untreated control cells recorded for 416827 (antisense eT*eA*eT*eG*e[5mC]*d[5mC]*d[5mC]*dT*dT*d[5mC]*dA*dT*dG*dT*d[5mC]*eT*eA*eG*eG*eT) [compound 416827] is above or exactly 70%.
## Result Yes

## Task Kindly determine if percent inhibition of Factor XI mRNA, relative to untreated control cells recorded for 412206 (antisense e[5mC]*e[5mC]*eG*eT*eG*d[5mC]*dA*dT*d[5mC]*dT*dT*dT*d[5mC]*dT*dT*eG*eG*e[5mC]*eA*eT) [compound 412206] is above or exactly 70%.
## Result Yes

## Task Kindly determine if percent inhibition of Factor XI mRNA, relative to untreated control cells recorded for 417000 (antisense eT*eG*d[5mC]*dA*d[5mC]*dA*dG*dT*dT*dT*d[5mC]*dT*dG*dG*d[5mC]*eA*eG*eG*e[5mC]*e[5mC]) [compound 417000] is above or exactly 70%.
## Result Yes

## Task Kindly determine if percent inhibition of Factor XI mRNA, relative to untreated control cells recorded for 417002 (antisense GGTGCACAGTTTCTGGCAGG; 2-13-5 gapmer, wing sugar chemistry not given here, further chemistry not given here) [compound 417002] is above or exactly 70%.
## Result Yes

## Task Kindly determine if percent inhibition of Factor XI mRNA, relative to untreated control cells recorded for 416972 (antisense eT*eA*dT*dG*d[5mC]*d[5mC]*d[5mC]*dT*dT*d[5mC]*dA*dT*dG*dT*d[5mC]*eT*eA*eG*eG*eT) [compound 416972] is above or exactly 70%.
## Result No

## Task Kindly determine if percent inhibition of Factor XI mRNA, relative to untreated control cells recorded for 416945 (antisense eA*eA*dT*dG*dT*d[5mC]*dT*dT*dT*dG*dT*dT*dG*d[5mC]*dA*eA*eG*e[5mC]*eG*e[5mC]) [compound 416945] is above or exactly 70%.
## Result Yes

## Task Kindly determine if percent inhibition of Factor XI mRNA, relative to untreated control cells recorded for 416896 (antisense eT*eT*eA*dT*dG*d[5mC]*d[5mC]*d[5mC]*dT*dT*d[5mC]*dA*dT*dG*dT*d[5mC]*dT*eA*eG*eG) [compound 416896] is above or exactly 70%.
## Result Yes

## Task Kindly determine if percent inhibition of Factor XI mRNA, relative to untreated control cells recorded for 416826 (antisense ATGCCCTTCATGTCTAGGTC; 5-10-5 gapmer, wing sugar chemistry not given here, further chemistry not given here) [compound 416826] is above or exactly 70%.
## Result Yes

## Task Kindly determine if percent inhibition of Factor XI mRNA, relative to untreated control cells recorded for 416842 (antisense eT*eG*eA*eG*eA*dT*dT*d[5mC]*dT*dT*dT*dG*dG*dG*d[5mC]*e[5mC]*eA*eT*eT*e[5mC]) [compound 416842] is above or exactly 70%.
## Result No

## Task Kindly determine if percent inhibition of Factor XI mRNA, relative to untreated control cells recorded for 416825 (antisense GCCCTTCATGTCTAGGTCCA; 5-10-5 gapmer, wing sugar chemistry not given here, further chemistry not given here) [compound 416825] is above or exactly 70%.
## Result Yes

## Task Kindly determine if percent inhibition of Factor XI mRNA, relative to untreated control cells recorded for 416892 (antisense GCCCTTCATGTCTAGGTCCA; 3-14-3 chimeric gapmer, wing sugar chemistry not given here, further chemistry not given here) [compound 416892] is above or exactly 70%.
## Result Yes

## Task Kindly determine if percent inhibition of Factor XI mRNA, relative to untreated control cells recorded for 416985 (antisense eG*e[5mC]*dA*dA*d[5mC]*d[5mC]*dG*dG*dG*dA*dT*dG*dA*dT*dG*eA*eG*eT*eG*e[5mC]) [compound 416985] is above or exactly 70%.
## Result No

## Task Kindly determine if percent inhibition of Factor XI mRNA, relative to untreated control cells recorded for 416858 (antisense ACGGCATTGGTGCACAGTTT; 5-10-5 gapmer, wing sugar chemistry not given here, further chemistry not given here) [compound 416858] is above or exactly 70%.
## Result No
